# tgt: HIS-TGF-βR1 T204D (Homo sapiens (Human), UniProt P36897, T204D)
# Sequence (P36897 34-503 T204D): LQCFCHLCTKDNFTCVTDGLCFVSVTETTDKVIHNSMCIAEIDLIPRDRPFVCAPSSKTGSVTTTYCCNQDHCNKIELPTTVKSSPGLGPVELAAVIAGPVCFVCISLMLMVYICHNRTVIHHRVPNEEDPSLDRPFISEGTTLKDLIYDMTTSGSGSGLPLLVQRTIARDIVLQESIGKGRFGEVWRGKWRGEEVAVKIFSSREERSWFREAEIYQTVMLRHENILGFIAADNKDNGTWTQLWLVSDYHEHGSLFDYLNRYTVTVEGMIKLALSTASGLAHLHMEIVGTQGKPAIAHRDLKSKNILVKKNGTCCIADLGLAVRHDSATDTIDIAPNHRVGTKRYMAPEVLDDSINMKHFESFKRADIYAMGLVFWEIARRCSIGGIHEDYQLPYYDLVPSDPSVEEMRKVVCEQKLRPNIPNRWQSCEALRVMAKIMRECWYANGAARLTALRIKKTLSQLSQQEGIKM
# test protocol: HTRF probe displacement assay with HIS-TGF-βR1 T204D
# measurement setup: read-out: TGFbr1 IC50; HTRF probe displacement, 1 nM HIS-TGF-βR1 T204D, 1 hour at room temperature
measured quantity: pIC50
The read-out pIC50 is expressed as -log10 of concentration in moles per litre.

Measured pIC50 of `CS(=O)(=O)Nc1cccc(-c2ncn(CC(F)F)c2-c2ccc3ncc(C#N)n3n2)c1` : 8.11

Measured pIC50 of `NC(=O)c1cnc2ccc(-c3c(-c4ccc(F)c(Cl)c4)ncn3C3CCOCC3)nn12` : 8.39

Measured pIC50 of `N#CC1(n2cnc(-c3ccc(F)cc3)c2-c2ccc3nccn3n2)CC1` : 8.70

Measured pIC50 of `N#Cc1cnc2ccc(-c3c(-c4ccc(C(F)(F)F)cc4)ncn3CC(F)F)nn12` : 6.26

Measured pIC50 of `CC[C@@H](CF)n1cnc(-c2ccc(F)cc2)c1-c1ccc2ncc(C(N)=O)n2n1` : 8.82

Measured pIC50 of `N#Cc1cc(-c2ncn(CC(F)F)c2-c2ccc3ncc(C#N)n3n2)ccc1F` : 8.10

Measured pIC50 of `CC(C)(O)CCn1cnc(-c2ccc(F)cc2)c1-c1ccc2ncc(C(N)=O)n2n1` : 7.55
